System: HepG2
assay.overview: cell viability relative to DMSO; higher = less toxic
measurement.setup: 72 h; 1000 nM
reported.metric: cell viability (%)
# value in %; strip the unit string

compound: O=C(Cn1c(=O)sc2ccc(Cl)cc21)N1CCN(CCO)CC1 [tiaramide]
cell viability / %: 88.8
--
compound: Cc1cc(OCCCS(C)(=O)=O)cc(C)c1-c1cccc(COc2ccc3c(c2)OC[C@H]3CC(=O)O)c1 [TAK-875]
cell viability / %: 94.4

Look up and state reported cell viability for Nc1ccc(S(=O)(=O)Nc2nccs2)cc1 [sulfathiazole]
105

Look up and state reported cell viability for OCCCCO [1,4-butanediol]
105

Look up and state reported cell viability for Oc1ccnc2cc(Cl)ccc12 [chloroxoquinoline]
92.4

Look up and state reported cell viability for C[C@H](Nc1ncnc2[nH]cnc12)c1cc2ccc(F)cc2nc1-c1ccccn1 [AMG319]
97.8

Look up and state reported cell viability for CC(C)NC[C@@H](C(=O)N1CCN(c2ncnc3c2[C@H](C)C[C@H]3O)CC1)c1ccc(Cl)cc1 [GDC-0068]
98.9

Look up and state reported cell viability for CC(=O)Oc1ccccc1C(=O)O [aspirin]
104

Look up and state reported cell viability for `O=C(Nc1ccccc1)N1CCN(c2nc(-c3ccccc3)ns2)CC1`
106

Look up and state reported cell viability for `O=C(N[C@H]1CN2CCC1CC2)c1ccc2c(c1)OCCO2`
97.7

* * *

Tested on: Caco-2
assay.overview: cell viability relative to DMSO; higher = less toxic
measurement.setup: 72 h; 1000 nM
The compounds listed here are annotated with their cell viability.
# value in %; strip the unit string

Known cell viability results, listed for orientation:
compound: CC(C)CN(C[C@@H](O)[C@H](Cc1ccccc1)NC(=O)O[C@H]1CCOC1)S(=O)(=O)c1ccc(N)cc1 [amprenavir]
test.result: 87.2
//
compound: C#CCN1C(C)=C(C(=O)OC)C(c2cccc([N+](=O)[O-])c2)C(C(=O)OCC)=C1C (centres undefined) [MRS-1845]
test.result: 88.6
//
compound: N=C(N)NC(=N)Nc1cccc(Cl)c1 [m-chlorophenylbiguanide]
test.result: 101
//
compound: COCCCC/C(=N\OCCN)c1ccc(C(F)(F)F)cc1 [fluvoxamine]
test.result: 80.6
//
compound: C/C(=C\c1csc(C)n1)[C@@H]1C[C@@H]2O[C@]2(C)CCC[C@H](C)[C@H](O)[C@@H](C)C(=O)C(C)(C)[C@@H](O)CC(=O)O1 [epothilone-B]
test.result: 52.8
//
compound: CCOC(=O)[C@]12CC1/C(=N\O)c1ccccc1O2 (some centres undefined) [CPCCOEt]
test.result: 98.8
//
compound: Nc1nc(=O)n([C@H]2C[C@H](O)[C@@H](CO)O2)cc1Cl [cytochlor]
test.result: 101
//
compound: Oc1c(Br)cc(Br)c2cccnc12 [broxyquinoline]
test.result: 98.9

Now let's try a different one.
Fetch value of cell viability on Caco-2 for `Cc1cc(SCc2sc(-c3ccc(C(F)(F)F)cc3)nc2C)ccc1OCC(=O)O` .
103

* * *

The compounds listed here are annotated with their cell viability.
System: U2OS
assay.overview: cell viability relative to DMSO; higher = less toxic
measurement.setup: 72 h; 1 nM
# value in %; strip the unit string

compound: O=C1c2ccccc2C(=O)C1c1ccc(Cl)cc1
reported.metric: cell viability
test.result: 99.5

Look up and state reported cell viability for `Cn1cc(-c2cnn3c(N)c(Br)c([C@@H]4CCCNC4)nc23)cn1`
98.3

Look up and state reported cell viability for `O=C(O)Cn1c(C(=O)Nc2nc(-c3ccccc3Cl)cs2)cc2ccccc21`
96

Look up and state reported cell viability for `CSC[C@H](N)C(=O)O`
101

Numbers sourced from the supplement of paper PMC13380429.
